- System: DLD-1
- ASSAY TEXT: Antiproliferative activity against human DLD-1 cells assessed as reduction in cell viability incubated for 48 hrs by MTT assay
- Format: functional, cell-based
- CONDITION SUMMARY: DLD-1, 48 h
Here the recorded IC50 is given for each entry.
Provide the reading as a plain figure in µM.

[
  {
    "COMPOUND SMILES": "NC(=O)c1ccccc1OCc1cccc(NC(=O)c2ccccc2Cl)c1",
    "VALUE TYPE": "IC50",
    "UNIT LABEL": "µM",
    "OBSERVED MEASUREMENT": 36.4
  },
  {
    "COMPOUND SMILES": "NC(=O)c1ccccc1OCc1cccc(NC(=O)Cc2ccc(Br)cc2)c1",
    "VALUE TYPE": "IC50",
    "UNIT LABEL": "µM",
    "OBSERVED MEASUREMENT": 18.1
  },
  {
    "COMPOUND SMILES": "NC(=O)c1ccccc1NCc1cccc(NC(=O)Cc2ccc(Br)cc2)c1",
    "VALUE TYPE": "IC50",
    "UNIT LABEL": "µM",
    "OBSERVED MEASUREMENT": 14
  },
  {
    "COMPOUND SMILES": "NC(=O)c1ccccc1NCc1cccc(NC(=O)Cc2ccccc2Br)c1",
    "VALUE TYPE": "IC50",
    "UNIT LABEL": "µM",
    "OBSERVED MEASUREMENT": 11.7
  },
  {
    "COMPOUND SMILES": "NC(=O)c1ccccc1OCc1cccc(NC(=O)Cc2cccc(Cl)c2)c1",
    "VALUE TYPE": "IC50",
    "UNIT LABEL": "µM",
    "OBSERVED MEASUREMENT": 22
  }
]

Given the compound NC(=O)c1ccccc1NCc1cccc(NC(=O)Cc2cccc(Cl)c2)c1 , what is its reported IC50?
9.14

One more compound: NC(=O)c1ccccc1OCc1cccc(NC(=O)Nc2cccc(Br)c2)c1
13.2

Also check NC(=O)c1ccccc1NCc1cccc(NC(=O)Cc2ccccc2Cl)c1
29.4

NC(=O)c1ccccc1NCc1cccc(NC(=O)c2cccc(Cl)c2)c1 ?
45.4

Could you do the same for NC(=O)c1ccccc1OCc1cccc(NC(=O)Cc2cccc(Br)c2)c1 , please?
14.9

Same for NC(=O)c1ccccc1OCc1cccc(NC(=O)c2cccc(Cl)c2)c1
45.5

* * *

- ASSAY TEXT: Cytotoxicity against human NCM460 cells assessed as reduction in cell viability incubated for 48 hrs by MTT assay
- Type: toxicity, cell-based
The label is yes for IC50 at 48 h below 100 µM and no for IC50 at 48 h equal to or exceeding 100 µM.

Answer whether the molecule NC(=O)c1ccccc1NCc1cccc(NC(=O)c2cccc(Cl)c2)c1 has IC50 at 48 h strictly less than 100 µM
no

And then NC(=O)c1ccccc1NCc1cccc(NC(=O)Cc2ccccc2Cl)c1 , what is it?
yes

Do the same for NC(=O)c1ccccc1OCc1cccc(NC(=O)c2ccccc2Cl)c1 please
no

What would you report for NC(=O)c1ccccc1NCc1cccc(NC(=O)Cc2ccccc2Br)c1 ?
yes

Same lookup for NC(=O)c1ccccc1NCc1cccc(NC(=O)Cc2ccc(Br)cc2)c1 , please.
yes

Entry to check: NC(=O)c1ccccc1OCc1cccc(NC(=O)c2ccccc2Br)c1
no

Note, next up: NC(=O)c1ccccc1OCc1cccc(NC(=O)Cc2ccc(Br)cc2)c1
yes

Same question, NC(=O)c1ccccc1NCc1cccc(NC(=O)Cc2ccc(Cl)cc2)c1 this time
yes

Note, next up: O=C(c1cc(Cc2n[nH]c(=O)c3ccccc23)ccc1F)N1CCN(C(=O)C2CC2)CC1
no

Now the same for NC(=O)c1ccccc1OCc1cccc(NC(=O)Nc2cccc(Br)c2)c1
no
